target: NADPH oxidase 1 (Homo sapiens); test: Inhibition of human NOX1 expressed in Drosophila DUOX knockdown model assessed as decrease in ROS production by lucigenin chemiluminescence assay
Entries whose Ki is below 7 µM take Condition met; entries at or above 7 µM take Condition not met.

molecule_smiles: Cc1ccc(N2C(=O)/C(=C/c3ccc(O)cc3O)N(C)C2=S)cc1
qualitative_label: Condition not met

molecule_smiles: Cc1ccc(N2C(=O)/C(=C/c3cccc(O)c3O)N(C)C2=S)cc1
qualitative_label: Condition not met

molecule_smiles: CN1C(=S)N(c2ccc3c(c2)CCC3)C(=O)/C1=C/c1cccc(O)c1O
qualitative_label: Condition met

molecule_smiles: CN1C(=S)N(c2cccc(Cl)c2)C(=O)/C1=C/c1ccc(N(C)C)cc1
qualitative_label: Condition met

molecule_smiles: CN1C(=S)N(c2ccccc2)C(=O)/C1=C/c1cccc(O)c1O
qualitative_label: Condition not met

* * *

Molecular target: NADPH oxidase 1 (Homo sapiens)
Sequence (Q9Y5S8 whole entry): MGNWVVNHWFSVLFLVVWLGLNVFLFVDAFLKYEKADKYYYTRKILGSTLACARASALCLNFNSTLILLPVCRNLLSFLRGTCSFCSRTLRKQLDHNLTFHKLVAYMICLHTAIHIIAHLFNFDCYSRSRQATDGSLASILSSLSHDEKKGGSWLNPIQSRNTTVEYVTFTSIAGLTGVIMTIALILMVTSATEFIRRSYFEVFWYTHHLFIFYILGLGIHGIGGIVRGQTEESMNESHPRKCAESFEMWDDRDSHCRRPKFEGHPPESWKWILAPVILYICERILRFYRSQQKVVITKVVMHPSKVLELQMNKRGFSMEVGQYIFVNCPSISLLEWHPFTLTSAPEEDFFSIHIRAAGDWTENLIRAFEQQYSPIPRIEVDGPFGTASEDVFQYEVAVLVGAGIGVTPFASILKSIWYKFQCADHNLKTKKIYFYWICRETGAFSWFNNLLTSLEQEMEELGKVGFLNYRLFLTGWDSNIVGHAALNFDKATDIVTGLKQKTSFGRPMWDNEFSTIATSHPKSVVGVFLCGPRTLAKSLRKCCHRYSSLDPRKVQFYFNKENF
Assay: Inhibition of human NOX1 expressed in Drosophila DUOX knockdown model assessed as decrease in ROS production by lucigenin chemiluminescence assay
Below, each of the compounds is paired with its reported Ki value.
observable: Ki

molecule_smiles: Cc1ccc(N2C(=O)/C(=C/c3ccc(N(C)C)cc3)N(C)C2=S)cc1
observable: Ki
recorded_measurement: 1.02 µM
--
molecule_smiles: CN1C(=S)N(C2CCCCC2)C(=O)/C1=C/c1ccc(O)cc1O
observable: Ki
recorded_measurement: 26 µM
--
molecule_smiles: CN1C(=S)N(c2ccccc2)C(=O)/C1=C/c1ccc(O)cc1O
observable: Ki
recorded_measurement: 33.8 µM
--
molecule_smiles: CN1C(=S)N(C2CCCCC2)C(=O)/C1=C/c1cccc(O)c1O
observable: Ki
recorded_measurement: 7.39 µM
--
molecule_smiles: CCc1ccc(N2C(=O)/C(=C/c3cccc(O)c3O)N(C)C2=S)cc1
observable: Ki
recorded_measurement: 27.9 µM
--
molecule_smiles: CCc1ccc(N2C(=O)/C(=C/c3ccc(N(C)C)cc3)N(C)C2=S)cc1
observable: Ki
recorded_measurement: 4.39 µM
--
molecule_smiles: CN1C(=S)N(C2CCCCC2)C(=O)/C1=C/c1ccc(N(C)C)cc1
observable: Ki
recorded_measurement: 12.3 µM
--
molecule_smiles: CCc1ccc(N2C(=O)/C(=C/c3ccc(O)cc3O)N(C)C2=S)cc1
observable: Ki
recorded_measurement: 8.4 µM

* * *

target: NADPH oxidase 4 (Homo sapiens, UniProt Q9NPH5); test: Inhibition of human NOX4 expressed in Drosophila DUOX knockdown model assessed as decrease in ROS production by lucigenin chemiluminescence assay

molecule_smiles: CN1C(=S)N(C2CCCCC2)C(=O)/C1=C/c1ccc(O)cc1O
Ki: 37.6 µM

molecule_smiles: CN1C(=S)N(c2ccccc2)C(=O)/C1=C/c1ccc(N(C)C)cc1
Ki: 0.88 µM

molecule_smiles: CN1C(=S)N(c2cccc(Cl)c2)C(=O)/C1=C/c1cccc(O)c1O
Ki: 9.31 µM

molecule_smiles: CN1C(=S)N(C2CCCCC2)C(=O)/C1=C/c1ccc(N(C)C)cc1
Ki: 35.6 µM

molecule_smiles: CN1C(=S)N(c2cccc(Cl)c2)C(=O)/C1=C/c1ccc(O)cc1O
Ki: 33.8 µM

molecule_smiles: CN1C(=S)N(c2ccc3c(c2)CCC3)C(=O)/C1=C/c1ccc(O)cc1O
Ki: 6.83 µM

molecule_smiles: CCc1ccc(N2C(=O)/C(=C/c3ccc(O)cc3O)N(C)C2=S)cc1
Ki: 2.39 µM

molecule_smiles: Cc1ccc(N2C(=O)/C(=C/c3ccc(N(C)C)cc3)N(C)C2=S)cc1
Ki: 2.33 µM

* * *

Biological target: NADPH oxidase 4 (Homo sapiens, UniProt Q9NPH5)
Sequence (Q9NPH5 whole entry): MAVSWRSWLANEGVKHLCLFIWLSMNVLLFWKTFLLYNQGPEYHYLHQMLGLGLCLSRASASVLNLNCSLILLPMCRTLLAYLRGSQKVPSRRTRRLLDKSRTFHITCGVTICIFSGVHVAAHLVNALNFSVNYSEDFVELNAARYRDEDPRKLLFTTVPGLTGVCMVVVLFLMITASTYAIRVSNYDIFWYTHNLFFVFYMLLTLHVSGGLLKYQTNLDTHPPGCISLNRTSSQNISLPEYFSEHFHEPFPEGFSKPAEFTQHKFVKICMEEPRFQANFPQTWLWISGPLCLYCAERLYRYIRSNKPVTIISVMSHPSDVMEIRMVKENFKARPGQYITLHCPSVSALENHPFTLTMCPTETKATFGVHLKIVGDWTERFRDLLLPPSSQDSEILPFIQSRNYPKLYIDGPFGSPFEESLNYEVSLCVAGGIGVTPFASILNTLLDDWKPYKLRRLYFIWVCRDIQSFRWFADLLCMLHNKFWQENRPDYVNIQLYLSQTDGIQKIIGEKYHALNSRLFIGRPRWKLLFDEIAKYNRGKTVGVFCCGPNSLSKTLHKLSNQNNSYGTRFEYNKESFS
Assay: Inhibition of human NOX4 expressed in Drosophila DUOX knockdown model assessed as decrease in ROS production by lucigenin chemiluminescence assay
Below, each of the compounds is paired with its reported log10(Ki) value.
observable: log10(Ki) (log10 of the value in µM)

molecule_smiles: CN1C(=S)N(c2cccc(Cl)c2)C(=O)/C1=C/c1ccc(N(C)C)cc1
log10(Ki): -0.08

molecule_smiles: CN1C(=S)N(c2ccc3c(c2)CCC3)C(=O)/C1=C/c1cccc(O)c1O
log10(Ki): 0.37

molecule_smiles: CN1C(=S)N(C2CCCCC2)C(=O)/C1=C/c1cccc(O)c1O
log10(Ki): 0.80

molecule_smiles: Cc1ccc(N2C(=O)/C(=C/c3ccc(O)cc3O)N(C)C2=S)cc1
log10(Ki): 1.54

molecule_smiles: CN1C(=S)N(c2ccccc2)C(=O)/C1=C/c1cccc(O)c1O
log10(Ki): 1.38

molecule_smiles: CN1C(=S)N(c2ccccc2)C(=O)/C1=C/c1ccc(O)cc1O
log10(Ki): 1.44

molecule_smiles: CCc1ccc(N2C(=O)/C(=C/c3cccc(O)c3O)N(C)C2=S)cc1
log10(Ki): 1.42

molecule_smiles: CCc1ccc(N2C(=O)/C(=C/c3ccc(N(C)C)cc3)N(C)C2=S)cc1
log10(Ki): 0.42

molecule_smiles: CN1C(=S)N(c2ccc3c(c2)CCC3)C(=O)/C1=C/c1ccc(N(C)C)cc1
log10(Ki): 1.12

molecule_smiles: Cc1ccc(N2C(=O)/C(=C/c3cccc(O)c3O)N(C)C2=S)cc1
log10(Ki): 1.43
